system: Plasmodium falciparum; test: Calibr Malaria Delayed Death Assay SOP; type: functional, organism-based; parameters: scale not given: in the data most compounds retested in dose-response had high values; settings: concentration 4.99e-06 (unit not given; other assays of the set use mol/L)
About 1,200 (3.2%) of roughly 38,000 compounds showed an effect of 50% or more. The median lay at about -58%. The list comes from a sample in which strong results are over-represented; it also holds close analogues and randomly drawn compounds.
parameter measured: Percent Effect

Take a look at these entries with their results.
CCc1cnc(CN(C)C2CCN(CCCNS(C)(=O)=O)C2)o1 (centres undefined)	-33.46%
CCOCC(O)CN1CCN(C(=O)c2ccc(OC)cc2)CC1 (centres undefined)	-30.2%
COCC1CCN(S(=O)(=O)NCC2COc3ccccc3C2)CC1 (centres undefined)	-101%
CCOCC1CN(S(=O)(=O)C2CC2)Cc2ncn(CC3CC3)c21 (centres undefined)	-12.84%
Cc1nc(CN2CCCC(NCCc3ccccc3Cl)C2)no1 (centres undefined)	81.78%

Dear reader, for each entry below, please note its Percent Effect.
1. CN1CCCC(CNS(=O)(=O)N2CCc3ccccc3C2)C1 (centres undefined)
2. Cc1nc(CN2CCCC(NCc3nc4ccccc4s3)C2)no1 (centres undefined)
3. CC(C)c1nccc(CN2CCC(c3nc4ccccc4n3C)CC2)n1

Result block:
77.6%
-31.98%
-101.6%

Record Percent Effect for all entries; do not skip any.
1. Cc1cc(C2CCCN(CC(=O)Nc3nc4c(s3)CCC4)C2)n[nH]1 (centres undefined)
2. Cc1nnc(NC(=O)CN2CCOC(Cn3cccn3)C2)s1 (centres undefined)
3. CC(C)C1Nc2ccccc2C(=O)N1CC(=O)Nc1nc2c(s1)CCC2 (centres undefined)
4. Cc1nnc(NC(=O)CN2CCCC(Cn3cncn3)C2)s1 (centres undefined)
5. O=C1CN(C(=O)c2cccc(C(F)(F)F)c2)CC(O)CN1CC1CC1 (centres undefined)

Result block:
["86.8%", "-152.2%", "15.72%", "-101.2%", "-23.92%"]

Can you give me Percent Effect for all of these, one by one?
1. Cc1nc(CN2CCCC(NCc3ccc4ccccc4c3)C2)no1 (centres undefined)
2. CCOc1cc(C(=O)N2CCCC(c3noc(CC)n3)C2)ccn1 (centres undefined)
3. CN1CCN(S(=O)(=O)NCC2COc3ccccc3C2)CC1 (centres undefined)
4. Cc1cc(C2CCCN(CC(=O)N3CCCc4ccccc43)C2)n[nH]1 (centres undefined)

Result block:
-12.45%
-108.4%
-15.69%
-11.77%

====

tested on: Plasmodium falciparum; test: Calibr Malaria Delayed Death Assay SOP; format: functional, organism-based; design: scale not given: in the data most compounds retested in dose-response had high values; conditions: concentration 4.99e-06 (unit not given; other assays of the set use mol/L)
Among all 38,000 compounds or so, about 1,200 (3.2%) showed an effect of 50% or more. The median lay at about -58%. This is one part of a sample in which strong results are shown more often than they occur.
Rule for this label: 1 (yes) means Percent Effect is less than -50%; 0 (no) means Percent Effect is at least -50%.

Use these answered entries as a reference point.
Cc1cc(C)cc(CN2CCN(Cc3cc(C#N)n(C)c3)CC2=O)c1	0 (no)
Cc1nn(C)c(N2CCOCC2)c1CNC(C)c1ccccn1 (stereo unspecified)	0 (no)
CCN1C(=O)CCCC12CCCN(C(=O)c1ccncc1F)C2.O=C(O)C(F)(F)F (stereo unspecified)	1 (yes)
CCOc1nn(CC)cc1-c1nnc(SCc2cccnc2)n1C	1 (yes)

Query block: Consider `Cc1cc(C)cc(CN2C[C@H]3COC[C@H](N4CCN(C)CC4)[C@H]3C2)c1.O=C(O)C(F)(F)F.O=C(O)C(F)(F)F.O=C(O)C(F)(F)F` . Does its Percent Effect lie strictly below -50%?
Result block: 0 (no)

Query block: Now this one: `COCCN1CCc2nc(SCc3ccc(F)cc3)[nH]c(=O)c2C1`
Result block: 1 (yes)

====

test system: Plasmodium falciparum; test: Calibr Malaria Delayed Death Assay SOP; type: functional, organism-based; parameters: scale not given: in the data most compounds retested in dose-response had high values; details: concentration 4.99e-06 (unit not given; other assays of the set use mol/L)
About 1,200 (3.2%) of roughly 38,000 compounds showed an effect of 50% or more. The median lay at about -58%. Only a selection was taken, and strong results are over-represented in it overall.
Percent Effect below -10% gives False; Percent Effect at or above it gives True.

See these solved cases before continuing.
OC(COc1ccccc1)CN1CCN(c2nccs2)CC1 (stereo unspecified)	False
Cc1cnn(CCNCC(O)c2ccc(C(F)(F)F)cc2)c1 (stereo unspecified)	True
Cc1ccoc1C(=O)N1CCCC(CNS(C)(=O)=O)C1 (stereo unspecified)	False
Cc1cnn(CCNCC(O)c2ccc(F)c(F)c2)c1 (stereo unspecified)	True
COCC1c2c(cnn2C)CCN1C(=O)c1cscn1.O=C(O)C(F)(F)F (stereo unspecified)	False

Let's switch to this compound now.
Query block: Confirm if Percent Effect reported for the compound Cc1cnn(CCNCC(O)c2ccc3c(c2)OCCO3)c1 (stereo unspecified) is -10% or above.
Result block: False

====

system: Plasmodium falciparum; test: Calibr Malaria Delayed Death Assay SOP; assay type: functional, organism-based; set-up: scale not given: in the data most compounds retested in dose-response had high values; conditions: concentration 4.99e-06 (unit not given; other assays of the set use mol/L)
Hit rate of the full screen: of about 38,000 compounds, about 1,200 (3.2%) showed an effect of 50% or more. The median lay at about -58%. Only a selection was taken, and strong results are over-represented in it overall.
Hi there, I'd appreciate the recorded Percent Effect for every entry that follows.
Please answer using the number first and the unit second.

Below are worked cases with known answers.
CC(C)Oc1cccc(CC(=O)NC2CCN(CC(N)=O)CC2)c1	-80.49%
Cc1cccc(CN2CCc3ncnc(N4CCN(C)CC4)c3CC2)n1.O=C(O)C(F)(F)F.O=C(O)C(F)(F)F	-236.1%
CCN1CCN(S(=O)(=O)c2cc(C)c(Cl)cc2C)CC1	16.43%
CCn1ccnc1CNCC1CCN(CC(O)c2ccccc2)CC1 (centres undefined)	-30.37%
CC(O)CN1CCC(CNCc2cccc(C(N)=O)c2)CC1 (centres undefined)	-77.28%
FC(F)(F)Oc1cccc(CNC[C@H]2Cn3ccnc3CO2)c1	-105.1%
CCN1CCCN(S(=O)(=O)c2cnc3onc(C)c3c2)CC1	-44.36%
Cc1cccc(CS(=O)(=O)NCc2nn(C)c3c2COCC3)c1	-48%

# return Percent Effect for each item in the list
1. COCCN(Cc1ccccc1)C(=O)c1cnn(C)c1C
2. CC(O)CN1CCC(CNCc2cccc(C(F)(F)F)c2)CC1 (centres undefined)
3. CCN1CCN(S(=O)(=O)c2cc(C)c(C)cc2Br)CC1
4. CCS(=O)(=O)NCc1cccnc1N1CCCC(O)C1 (centres undefined)
5. CN1CCOC(CNCc2cccc(OC(F)(F)F)c2)C1 (centres undefined)
6. Cc1cc(N(C)CCN(C)C2CCCC2)n2nc(C)cc2n1
7. CCN1CCN(S(=O)(=O)c2cc(C)c(Cl)cc2Cl)CC1

Result block:
-75.6%
82.43%
25.52%
-44.06%
1.205%
53.42%
62.85%

Consider the following items and state reported Percent Effect for each.
1. Cc1noc(C)c1CCC(=O)N1CCCCC1CNS(C)(=O)=O (centres undefined)
2. Cc1ccc(C(=O)N2CCc3nc4c(C)csc4c(=O)n3CC2)cn1

Result block:
-22.15%
-115%

Please go through the list and note Percent Effect for each compound.
1. O=C1CCC(=O)N1CCn1nnc(-c2ccc(Br)cc2)n1
2. Cc1cc(NC(=O)N(C)CCN2CCN(c3ccccc3)CC2)on1
3. Cc1ccc(S(=O)(=O)NCCCN2CCC(O)CC2)cc1Cl
4. O=C(O)C(F)(F)F.O=C(O)C(F)(F)F.O=C(O)c1c(-c2ccncc2)ncc2c1CCN(CC1CCOC1)C2 (centres undefined)
5. Cc1cc(NC(=O)NC(C)CN2CCN(c3ccccc3)CC2)on1 (centres undefined)
6. CC(C)Oc1cccc(CN2CCC(C(C)N3CCOCC3)CC2)c1 (centres undefined)
7. CCN(C(=O)Nc1nncs1)C(C)c1cccc(OC)c1 (centres undefined)

Result block:
1. -91.28%
2. -52.94%
3. 19.72%
4. -34.25%
5. 58.09%
6. 55.35%
7. -32.07%

====

test system: Plasmodium falciparum; assay: Calibr Malaria Delayed Death Assay SOP; assay type: functional, organism-based; design: scale not given: in the data most compounds retested in dose-response had high values; settings: concentration 4.99e-06 (unit not given; other assays of the set use mol/L)
Among all 38,000 compounds or so, about 1,200 (3.2%) showed an effect of 50% or more. The median lay at about -58%. This is one part of a sample in which strong results are shown more often than they occur.
parameter measured: Percent Effect
Note to self: number, then unit, no commentary.

Sample answers from the record:
O=C(CNCC1(O)CCCN(Cc2cccc(F)c2F)C1=O)NC1CC1 (centres undefined)	-101.8%
CCn1cc(C(=O)NCc2cccnc2N(C)Cc2ccccc2)cn1	-74.6%
CC(=O)NC1CCCN(C(=O)NCc2cccnc2N(C)C)C1 (centres undefined)	-14.71%
COc1ccc(CN2CCC3(CC2)CC(c2cccnc2)CO3)cc1.O=C(O)C(F)(F)F.O=C(O)C(F)(F)F (centres undefined)	-68.03%
COc1ccc(F)c(CN2CCCC(O)(CNC3CCCCC3)C2=O)c1 (centres undefined)	69.02%

For every listed record, write down its Percent Effect.
1. Cl.N[C@@H](Cc1ccccc1)c1nnc(S(=O)(=O)Cc2ccc(Cl)cc2)o1
2. CN(CCOCC(F)(F)F)CC1CCN(CCO)CC1
3. COCCNCC1(O)CCCN(Cc2ccc(F)c(F)c2)C1=O (centres undefined)
4. Cc1ccc(CC(=O)NCC(Cc2ccc(F)cc2)C(N)=O)cn1 (centres undefined)
5. Cc1cc(C)c(CNC(=O)C(C)Oc2ccccc2F)c(=O)[nH]1 (centres undefined)
6. CN(Cc1ccccc1)c1ncccc1CNC1CCSCC1
7. C=C(C)CNCC1(O)CCCN(Cc2ccc(F)c(F)c2)C1=O (centres undefined)
8. O=C(NCc1cc2n(n1)CCCNC2)C1(c2ccc(Cl)cc2)CCC1

Result block:
1: -112.8%; 2: 17.18%; 3: 23.01%; 4: -64.69%; 5: -101.9%; 6: 25.77%; 7: -91.62%; 8: -15.95%

Look up Percent Effect for the entries below, preserving their order.
1. COC(=O)CNCC1(O)CCCN(Cc2cccc(F)c2F)C1=O (centres undefined)
2. CCC(OC)C(=O)NCc1cc2n(n1)CCCN(C1CCCCC1)C2 (centres undefined)
3. COCC1(Nc2nc(C)nc3c2cnn3C)CCCC1
4. CCc1n[nH]c(C2CN(C(=O)c3ccc(NC4CC4)nc3)CCO2)n1 (centres undefined)

Result block:
1. -57.14%
2. -16.19%
3. -148.5%
4. -51.88%
